system: 276233-004-R-J1-PDC complex spheroid viability; assay: Anticancer human tumor 276233-004-R-J1-PDC patient-derived colon adenocarcinoma cell line growth inhibition [GQUAD]; conditions: second compound 0.0316 µM; first compound 10 µM; active compounds read low;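 also: spheroids exposed to drugs for seven days; 100% = DMSO vehicle control viability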
Listing of entries alongside the reported viability, T/C.

molecule	viability, T/C [%]
O=C(c1cc(Cc2n[nH]c(=O)c3ccccc23)ccc1F)N1CCN(C(=O)C2CC2)CC1 + Cc1[nH]c2ccc(F)cc2c1-c1nc2c3cccnc3c3ncccc3c2[nH]1	83.4
CC(=O)O[C@H]1C(=O)[C@@]2(C)[C@H]([C@H](OC(=O)c3ccccc3)[C@]3(O)C[C@H](OC(=O)[C@H](O)[C@@H](NC(=O)c4ccccc4)c4ccccc4)C(C)=C1C3(C)C)[C@]1(OC(C)=O)CO[C@@H]1C[C@@H]2O + Cc1[nH]c2ccc(F)cc2c1-c1nc2c3cccnc3c3ncccc3c2[nH]1	70.9
CC1COCCN1c1cc(C2(S(C)(=N)=O)CC2)nc(-c2ccnc3[nH]ccc23)n1 (stereo unspecified) + CN(C)c1ccc(Nc2c3ccc(NC(=O)CCN4CCCC4)cc3nc3cc(NC(=O)CCN4CCCC4)ccc23)cc1	67.4
CC(C)n1c(=O)n(C)c2cnc3cc(F)c(-c4ccc(OCCCN5CCCCC5)nc4)cc3c21 + Cc1[nH]c2ccc(F)cc2c1-c1nc2c3cccnc3c3ncccc3c2[nH]1	82.9
Nc1ccn(C2OC(CO)C(O)C2(F)F)c(=O)n1 (stereo unspecified) + Cc1[nH]c2ccc(F)cc2c1-c1nc2c3cccnc3c3ncccc3c2[nH]1	78.4
COc1cccc2c1C(=O)c1c(O)c3c(c(O)c1C2=O)CC(O)(C(=O)CO)CC3OC1CC(N)C(O)C(C)O1 (stereo unspecified) + Cc1[nH]c2ccc(F)cc2c1-c1nc2c3cccnc3c3ncccc3c2[nH]1	39
